- Type: in vivo, human
- reported.conditions: human, plasma, oral, 10 mg
parameter.measured: AUC (µM·h)
Note: unit µM·h is implicit; provide only the numeric part.

INPUT: Respond only with AUC recorded for "N#Cc1ccc2c(c1)[C@H]1CCCN(C(=O)c3ccc4[nH]cnc4c3)[C@H]1C2"
OUTPUT: 14.5

###

- Format: in vivo, human
- reported.conditions: human, plasma, oral, 40 mg, C max, 40 mg; Day 1; gMean (%gCV)
parameter.measured: Cmax (nM)
Respond numerically; units are nM and should not be typed.

INPUT: Write down Cmax measured for item "N#Cc1ccc2c(c1)[C@H]1CCCN(C(=O)c3ccc4[nH]cnc4c3)[C@H]1C2"
OUTPUT: 2920
